Where do these numbers come from? They come from ChEMBL document CHEMBL2203093.

EXPERIMENT: Tmax in CD-1 mouse at 100 mg/kg, po
Type: ADME, organism-based
Set-up: dose 100 mg/kg, route oral
CONDITION_CONTEXT: in vivo
READOUT_NAME: Tmax (min)
Give bare numbers, in min.

Fill in the blank: the reported Tmax of COc1c(C)cnc(Cn2cnc3c(Cl)nc(N)nc32)c1C is ____.
4.98

----------
EXPERIMENT: Half life in DBA1 mouse brain at 5 mg/kg, po
Assay type: ADME, organism-based
Parameters: dose 5 mg/kg, route oral
READOUT_NAME: half-life (h)
One number for each entry, in h.

Which half-life reading was recorded for the molecule COc1c(C)cnc(Cn2cc(C#CCC(C)(C)O)c3c(Cl)nc(N)nc32)c1C ?
2.1

----------
EXPERIMENT: Half life in DBA1 mouse lymph nodes at 5 mg/kg, po
Assay type: ADME, organism-based, Lymph node
Design: dose 5 mg/kg, route oral
READOUT_NAME: half-life (h)
One number for each entry, in h.

Which half-life value is on record for COc1c(C)cnc(Cn2cc(C#CCC(C)(C)O)c3c(Cl)nc(N)nc32)c1C ?
1.6

----------
EXPERIMENT: Apparent permeability from apical to basolateral side of human Caco2 cells
Assay type: ADME, cell-based
CONDITION_CONTEXT: Caco-2
READOUT_NAME: Papp A→B
Kindly format the answer as number then unit.

As a guide, the following entries are already answered.
query_smiles=CC1(C)CC(=O)c2c(C(F)(F)F)nn(-c3ccc(C(N)=O)c(N[C@H]4CC[C@H](O)CC4)c3)c2C1 readout_name="Papp A→B" result="1.1 ×10⁻⁶ cm/s"
query_smiles=COc1c(C)cnc(Cn2cnc3c(Cl)nc(N)nc32)c1C readout_name="Papp A→B" result="20 ×10⁻⁶ cm/s"
query_smiles=COc1c(C)cnc(Cn2cc(C#CCC(C)(C)O)c3c(Cl)nc(N)nc32)c1C readout_name="Papp A→B" result="34.7 ×10⁻⁶ cm/s"

Please look at the following molecule next.
Reported Papp A→B, molecule CCNC(=O)c1noc(-c2cc(C(C)C)c(O)cc2O)c1-c1ccc(CN2CCOCC2)cc1 : ____
1.9 ×10⁻⁶ cm/s

----------
EXPERIMENT: Initial Cmax in CD-1 mouse at 5 mg/kg, iv
Type: ADME, organism-based
Design: dose 5 mg/kg, route intravenous
CONDITION_CONTEXT: in vivo
READOUT_NAME: Cmax (ng/mL)
Give bare numbers, in ng/mL.

GET /values?readout=Cmax&item= CCNC(=O)c1noc(-c2cc(C(C)C)c(O)cc2O)c1-c1ccc(CN2CCOCC2)cc1 [LUMINESPIB]
2180

----------
EXPERIMENT: AUC in CD-1 mouse at 5 mg/kg, iv
Type: ADME, organism-based
Parameters: dose 5 mg/kg, route intravenous
CONDITION_CONTEXT: plasma
READOUT_NAME: AUC (ng·h/mL)
Answers are plain numbers, in ng·h/mL.

Query (compound): CCNC(=O)c1noc(-c2cc(C(C)C)c(O)cc2O)c1-c1ccc(CN2CCOCC2)cc1 ; field requested: AUC
2410

----------
EXPERIMENT: AUC (infinity) in DBA1 mouse spleen at 5 mg/kg, po
Assay type: ADME, organism-based
Design: dose 5 mg/kg, route oral, time infinity
READOUT_NAME: AUC(0-inf)
Please format your answer as a value with the unit trailing.

Query: AUC(0-inf); subject: COc1c(C)cnc(Cn2cc(C#CCC(C)(C)O)c3c(Cl)nc(N)nc32)c1C
8160 ng·h/mL
